For each entry below, report its IC50 value.
# Tested system: T1, Fc-tagged human TSLP antigen (huTSLP-Fc) (human, biotin-labeled in the blocking assays)
# T1 construct: whole entry named; also called recombinant human TSLP-Fc
# Experimental protocol: competition ELISA: blocks TSLP binding to TSLP receptor
Answers are plain numbers, in nM.

>>> quantitative_readout("hu199-27 (antibody, human IgG1, kappa, V domains shown, IgG1-YTE, kappa) VH: EVQLVQSGAEVKKPGASVKVSCKASGYTFTTYWMHWVKQAPGQGLEWMGMIDPSDSETTLIQKFKDKVTMTVDKSTSTAYMELSSLRSEDTAVYYCARTLDGYYDYWGQGTTVTVSS VL: DIQMTQSPSSLSASVGDRVTITCRASENIYSYLAWYQQKPGKSPQLLVYFAKTLAEGVPSRFSGSGSGTQFTLTISSLQPEDFATYYCQHHYGTPWTFGGGTKVEIKR")
0.354

Now examine the next entry.
Noted for hu199-16 (antibody, human IgG1, kappa, V domains shown, IgG1-YTE, kappa) VH: EVQLVQSGAEVKKPGASVKVSCKASGYTFTTYWMHWVRQAPGQGLEWIGMIDPSDSETTLIQKFKDRATLTVDKSTSTAYMELSSLRSEDTAVYYCARTLDGYYDYWGQGTTVTVSS VL: DIQMTQSPSSLSASVGDRVTITCRASENIYSYLAWYQQKPGKAPKLLIYFAKTLAEGVPSRFSGSVSGTDFTLTISSLQPEDFATYYCQHHYGTPWTFGGGTKVEIKR : its IC50 reads 0.737

All values here come from patent US20240016931A1.
